ASSAYED TARGET: T1, bivalent human SIRPγ protein with mouse Fc (human, UniProt Q9P1W8 29-360)
T1 construct: also called Human SIRPγ-mFc
T1 sequence (Q9P1W8 29-360 limits assumed): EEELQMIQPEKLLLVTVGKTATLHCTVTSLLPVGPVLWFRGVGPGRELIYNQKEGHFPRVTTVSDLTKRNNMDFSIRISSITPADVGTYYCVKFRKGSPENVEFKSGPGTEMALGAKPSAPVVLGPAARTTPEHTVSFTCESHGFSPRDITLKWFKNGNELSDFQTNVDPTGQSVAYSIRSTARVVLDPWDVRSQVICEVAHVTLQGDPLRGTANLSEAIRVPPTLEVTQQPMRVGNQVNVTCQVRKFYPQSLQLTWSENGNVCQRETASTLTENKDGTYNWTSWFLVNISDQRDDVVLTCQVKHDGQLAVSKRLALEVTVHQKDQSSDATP
PROTOCOL: BLI Octet, antibody on AHC, global 1:2 model
Procedure: Antibodies were coated onto anti-human Fc capture (AHC) biosensors. SIRP-His monomer protein or bivalent SIRP protein with mouse Fc at four concentrations (200 nM, 100 nM, 50 nM, 25 nM) were exposed to the biosensor to measure on-rate kinetics of SIRP antibodies binding to SIRP protein. The biosensors were then exposed to wash buffer to measure off-rate kinetics. The resulting kinetic data were analyzed and fitted using a global 1:2 binding model.

| BINDER | Kd, µM |
| --- | --- |
| Antibody 90 (antibody, V domains shown) VH: QVQLVQSGAEVKKPGASVKVSCKASGYTFTSYYMHWVRQAPGQGLEWMGWMNPNSDNTGYAQKFQGRVTMTRDTSTSTVYMELSSLRSEDTAVYYCARVGVGYGYYYYGMDVWGQGTTVTVSS VL: DIQMTQSPSSLSASVGDRVTITCRAGQSIGDYLNWYQQKPGKAPKLLIYAASSLQSGVPSRFSGSGSGTDFTLTISSLQPEDFATYYCQQSYSTPWTFGQGTKVEIK | 0.0876 |
| Antibody 89 (antibody, V domains shown) VH: QVQLVQSGAEVKKPGASVKVSCKASGGTFSSYAISWVRQAPGQGLEWMGIINPSSSSTGYAQKFQGRVTMTRDTSTSTVYMELSSLRSEDTAVYYCARAGYYDSSGYYYSPYYGMDVWGQGTTVTVSS VL: EIVMTQSPATLSVSPGERATLSCRASQSISGSYLAWYQQKPGQAPRLLIYGASTRATGIPARFSGSGSGTEFTLTISSLQSEDFAVYYCQQYGSFPFTFGPGTKVDIK | 1.32 |
| Antibody 84 (antibody, V domains shown) VH: QVQLVQSGAEVKKPGASVKVSCKASGYTFTSYYMHWVRQAPGQGLEWMGWINPNSGNAGFAQKFQGRVTMTRDTSTSTVYMELSSLRSEDTAVYYCARGPVYSYGPFDYWGQGTLVTVSS VL: DIQMTQSPSSLSASVGDRVTITCRASQGISTYLAWYQQKPGKAPKLLIYAASTLQSGVPSRFSGSGSGTDFTLTISSLQPEDFATYYCQQSHSAPITFGQGTKVEIK | 2.05 |
